molecular target: Proteinase-activated receptor 2 (Homo sapiens) (UniProt P55085); test: Agonist activity at human PAR2 expressed in HEK293T cells assessed as effect on intracellular calcium mobilization by R-SAT assay relative to SLIGRL-NH2; format: functional, cell-based; conditions: HEK-293T
Sequence (P55085 whole entry): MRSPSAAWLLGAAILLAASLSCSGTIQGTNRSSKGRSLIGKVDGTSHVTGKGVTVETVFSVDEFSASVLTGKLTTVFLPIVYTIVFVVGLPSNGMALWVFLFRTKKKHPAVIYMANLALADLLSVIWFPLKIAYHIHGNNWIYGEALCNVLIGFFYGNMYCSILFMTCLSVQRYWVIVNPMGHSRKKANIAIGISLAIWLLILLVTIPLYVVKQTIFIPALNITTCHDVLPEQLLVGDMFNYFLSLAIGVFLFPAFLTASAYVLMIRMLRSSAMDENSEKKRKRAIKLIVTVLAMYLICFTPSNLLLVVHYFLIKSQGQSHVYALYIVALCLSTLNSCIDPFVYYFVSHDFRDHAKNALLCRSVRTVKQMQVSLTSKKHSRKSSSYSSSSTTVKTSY
Square brackets hold non-standard residues; d marks the D form. Peptide text beside a SMILES is read from it. * marks the point of attachment. Orn = NCCC[C@H](N)C(=O)O; 2Furoyl = O=C(c1ccco1)*
hey, just use rule met if measured Efficacy is less than 50%, otherwise rule not met

Please review the entries below; each comes with its answer.
compound=C/C(=N\NC(=O)[C@@H]1C(=O)NC[C@H]1c1ccccc1)c1ccccc1Br class_assignment="rule met"
compound=C/C(=N\NC(=O)[C@@H]1C(=O)NC[C@H]1c1cccc(Br)c1)c1cccc(Br)c1 class_assignment="rule not met"
compound=C/C(=N\N(C)C(=O)[C@@H]1C(=O)NC[C@H]1c1ccccc1)c1cccc(Br)c1 class_assignment="rule met"
compound=C/C(=N\NC(=O)[C@@H]1C(=O)NC[C@H]1c1ccccc1)c1cccs1 class_assignment="rule met"
compound="CC[C@H](C)[C@H](NC(=O)[C@H](CC(C)C)NC(=O)c1ccco1)C(=O)NCC(=O)N[C@@H](CCCNC(=N)N)C(=O)N[C@@H](CC(C)C)C(=O)N[C@@H](CCCN)C(N)=O (2Furoyl-LIGRL[Orn]-NH2)" class_assignment="rule not met"
compound=O=C1NC[C@@H](c2ccccc2)[C@@H]1C(=O)N/N=C1\CCc2ccc(Br)cc21 class_assignment="rule not met"

--- query ---
Q: Please indicate whether the reported Efficacy of C/C(=N\NC(=O)[C@@H]1C(=O)NC[C@H]1c1ccccc1)c1cccc(Br)c1 (stereo in doubt; (-)-3) is strictly below 50%.
Ans: rule met

----------
biological target: Proteinase-activated receptor 2 (Homo sapiens); experiment: Agonist activity at human PAR2 expressed in HEK293T cells assessed as effect on intracellular calcium mobilization by R-SAT assay
Square brackets hold non-standard residues; d marks the D form. Peptide text beside a SMILES is read from it. * marks the point of attachment. Orn = NCCC[C@H](N)C(=O)O; 2Furoyl = O=C(c1ccco1)*
Consider the following compounds and their measured pEC50 readings.
pEC50 field: float, defined as -log10 of concentration (mol/L).

Previously resolved entries follow.
compound=C/C(=N\N(C)C(=O)[C@@H]1C(=O)NC[C@H]1c1ccccc1)c1cccc(Br)c1 experimental_target="Proteinase-activated receptor 2 (Homo sapiens)" experimental_result=5.20
compound="C/C(=N\\NC(=O)[C@@H]1C(=O)NC[C@H]1c1ccccc1)c1cccc(Br)c1 (stereo in doubt; 3)" experimental_target="Proteinase-activated receptor 2 (Homo sapiens)" experimental_result=7.50
compound="CC[C@H](C)[C@H](NC(=O)[C@H](CC(C)C)NC(=O)c1ccco1)C(=O)NCC(=O)N[C@@H](CCCN=C(N)N)C(=O)N[C@@H](CC(C)C)C(=O)N[C@@H](CCCN)C(N)=O (2Furoyl-LIGRL[Orn]-NH2)" experimental_target="Proteinase-activated receptor 2 (Homo sapiens)" experimental_result=7.60
compound=C/C(=N\NC(=O)[C@@H]1C(=O)NC[C@H]1c1ccccc1)c1ccc(Br)cc1 experimental_target="Proteinase-activated receptor 2 (Homo sapiens)" experimental_result=5.10
compound=C/C(=N\NC(=O)[C@@H]1C(=O)NC[C@H]1c1cccc(Br)c1)c1cccc(Br)c1 experimental_target="Proteinase-activated receptor 2 (Homo sapiens)" experimental_result=7.60

Q: What measured pEC50 goes with `O=C1NC[C@@H](c2ccccc2)[C@@H]1C(=O)N/N=C1\CCc2ccc(Br)cc21` ?
Ans: 6.90

Q: What measured pEC50 goes with `C/C(=N\NC(=O)[C@@H]1C(=O)NC[C@H]1c1ccccc1)c1ccccc1Br` ?
Ans: 5.00

Q: What measured pEC50 goes with `C/C(=N\NC(=O)[C@@H]1C(=O)NC[C@H]1c1ccccc1)c1ccc(Br)s1` ?
Ans: 5.60

src = ChEMBL document CHEMBL1140059
